- Tested on: dermal human fibroblast cells (DHF)
- Experiment summary: cells
- Format: cell-based
- Experimental setup: Homo sapiens, Fibroblast, 72 h, read-out: IC50 DHF

Compound: C=CCc1ccc2c(c1)OCO2 [safrole, Safrole]
IC50: > 100 µM
